Tested on: OVCAR-4 ovarian
Assay: NCI-60 one-dose screen, 48 h (100 = growth as untreated, 0 = no growth, -100 = all killed)
Details: 10 µM unless noted
This is part of a sample that, as a whole, favours compounds with a hit. Of some 83,000 tested, about 20% had one in any assay.
property: growth (%)

[[record]]
compound = "O=C(c1nc2ccccc2[nH]1)C1C(c2cccc([N+](=O)[O-])c2)C2CC3CCCCC3N2[C@@]12C(=O)Nc1cc(Cl)ccc12 (stereo partly drawn)"
property = "growth"
measurement = 27.5

[[record]]
compound = "COc1ccc(OC)c(NC(=O)/C(C#N)=C/c2ccco2)c1"
property = "growth"
measurement = 77

[[record]]
compound = "O=C(Nc1ccc(N2CCNCC2)cn1)c1[nH]ncc1Nc1ncnc2sc3c(c12)CCC3"
property = "growth"
measurement = -53.6

[[record]]
compound = "COC(=O)/C(CCC=C(C)C)=C1\\[C@@H](OC(C)=O)C[C@@]2(C)[C@H]1CC(=O)[C@H]1[C@@]3(C)CC[C@H](NCc4ccccc4)[C@@H](C)[C@@H]3CC[C@@]12C"
property = "growth"
measurement = 80.7

[[record]]
compound = "CN(C)CCNc1cc(-c2ccccc2)nc2ccccc12"
property = "growth"
measurement = -25

[[record]]
compound = "COc1ccc(Cn2c(Br)c3c(c2-c2cc(OC)c(OC)c(OC)c2)CCc2sc(NC(=O)c4ccc(OC)cc4)nc2-3)cc1"
property = "growth"
measurement = 93.3

[[record]]
compound = "COc1ccc(-c2cc(=O)c3c(OC)c4ccoc4c(/C=C/C=O)c3o2)cc1"
property = "growth"
measurement = 37.2

[[record]]
compound = "O=S(=O)(c1ccc(NC(=S)NC23CC4CC(CC(C4)C2)C3)cc1)N1CCCCC1"
property = "growth"
measurement = 86.4

